Reference for the values: PubChem BioAssay (NCI)

Provide the recorded TGI for the entries that follow.
- Tested on: TK-10 renal
- Procedure details: NCI tumour cell line growth inhibition, 48 h

Q. Please give the measured TGI for this compound: NS(=O)(=O)c1ccc(N=Nc2ccc(O)cc2)cc1
A. > 100 µM

Q. Please give the measured TGI for this compound: COc1cccc(C2SC(C)C(=O)N2NC(=O)C(O)c2ccccc2)c1 (configuration not stated)
A. > 100 µM

Q. Please give the measured TGI for this compound: COC(=O)CC(C(C(=O)OCc1ccccc1)C(C)O)N1C(=O)OCC1c1ccccc1 (configuration not stated)
A. > 100 µM

Q. Please give the measured TGI for this compound: CCCCCCCC(=O)Nc1nc2[nH]c(CN3CCN(Cc4cccc(I)c4)CC3)c(CN3CCN(Cc4cccc(I)c4)CC3)c2c(=O)[nH]1
A. 1.62 µM

Q. Please give the measured TGI for this compound: N=C1c2ccccc2C(=O)c2c(NCCNCCO)ccc(O)c21
A. > 62.3 µM

Q. Please give the measured TGI for this compound: COc1ccc(-c2oc3ncnc(N)c3c2-c2ccc(NC(=O)Nc3cc(C(F)(F)F)ccc3F)cc2)cc1
A. 3.37 µM

Q. Please give the measured TGI for this compound: O=c1cccccc1O
A. > 100 µM
